B1: mRNA-splicing (parent)
chain: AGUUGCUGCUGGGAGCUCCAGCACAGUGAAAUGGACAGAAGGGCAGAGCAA

# Variants of: B1
# experimental_details: exon inclusion enrichment index; higher = more inclusion; WT1 exon 5 minigene, HEK293
// not fulfilled strictly below 0.5 in exon inclusion enrichment index; fulfilled otherwise

Solved cases (6 shown):
# mutant_label, group_label
records = [
    ("U27A G28C", "not fulfilled"),
    ("G5C C6G U7C U10C G34C A35G", "fulfilled"),
    ("C36A A37C", "not fulfilled"),
    ("G2U U3A G5A C6U U7A G8U C9A", "not fulfilled"),
    ("G12A G13U", "not fulfilled"),
    ("G5A U7C G8A U10C G41C", "fulfilled"),
]

Reported exon inclusion enrichment index reaches at least 0.5 for G5A C6U U7A G8U C9A G33A G34A ? not fulfilled

Quick one: C6A U7A C9A U10A A40G G41C fulfilled

Quick one: G5C C6U G8C C9U U10C G41A G42U fulfilled

Quick one: C6A U7C C9A U10C G15C C16A fulfilled

Quick one: G5A C6G U7G C9A C22A A23G not fulfilled

Quick one: G5U G8U C9U G42U G43C not fulfilled

Quick one: G5C C6A U7C G8A U10A A31U U32C not fulfilled

Quick one: G5A U7C G8A U10C G38A A39U not fulfilled

The values you see were collected from the RNAGym collection of RNA variant scans (doi:10.1101/gr.219683.116).
